meta.source: patent US6894045B2

Give measured melting point for each item. Keep answers brief.

Incoming: Note melting point for the compound shown: CCCC(CCC)n1c(CC)nc2c1C(=O)N(C)C(CC)N2c1ccc(Cl)cc1Cl (stereo not shown) [Example 6]
Outgoing: 116.5 to 117.5 °C

Incoming: For the compound CCc1nc2c(n1C(CC)CC)C(=O)N(C)C(C)N2c1ccc(Cl)cc1Cl (stereo not shown) [Example 3] , give its reported melting point.
Outgoing: 135 to 136.5 °C

Incoming: Please look at this compound and report its melting point: CCCC(CCC)n1c(CC)nc2c1C(=O)N(C)C(C)N2c1ccc(Cl)cc1Cl (stereo not shown) [Example 5]
Outgoing: 144 to 145.5 °C

Incoming: Using the record for CCCC(CCC)n1c(CC)nc2c1C(=O)N(C)CN2c1ccc(Cl)cc1Cl [Example 2] , state its measured melting point.
Outgoing: 117 to 118 °C

Incoming: Answer with the recorded melting point of CCCCC(CC)n1c(CC)nc2c1C(=O)N(C)CN2c1ccc(Cl)cc1Cl (stereo not shown) [Example 49] only.
Outgoing: 94 to 95 °C

Incoming: For CCc1nc2c(n1Cc1ccc(-c3ccccc3)cc1)C(=O)N(C)CN2c1ccc(Cl)cc1Cl [Example 21] , write its melting point.
Outgoing: 216 to 217 °C

Incoming: Annotate the compound CCc1nc2c(n1C(CC)CC)C(=O)N(C)CN2c1ccc(Cl)cc1Cl [Example 1] with its measured melting point.
Outgoing: 132 to 133 °C
